- target.of.assay: human calcium receptor (Homo sapiens, UniProt P41180)
- Sequence (P41180 20-1078): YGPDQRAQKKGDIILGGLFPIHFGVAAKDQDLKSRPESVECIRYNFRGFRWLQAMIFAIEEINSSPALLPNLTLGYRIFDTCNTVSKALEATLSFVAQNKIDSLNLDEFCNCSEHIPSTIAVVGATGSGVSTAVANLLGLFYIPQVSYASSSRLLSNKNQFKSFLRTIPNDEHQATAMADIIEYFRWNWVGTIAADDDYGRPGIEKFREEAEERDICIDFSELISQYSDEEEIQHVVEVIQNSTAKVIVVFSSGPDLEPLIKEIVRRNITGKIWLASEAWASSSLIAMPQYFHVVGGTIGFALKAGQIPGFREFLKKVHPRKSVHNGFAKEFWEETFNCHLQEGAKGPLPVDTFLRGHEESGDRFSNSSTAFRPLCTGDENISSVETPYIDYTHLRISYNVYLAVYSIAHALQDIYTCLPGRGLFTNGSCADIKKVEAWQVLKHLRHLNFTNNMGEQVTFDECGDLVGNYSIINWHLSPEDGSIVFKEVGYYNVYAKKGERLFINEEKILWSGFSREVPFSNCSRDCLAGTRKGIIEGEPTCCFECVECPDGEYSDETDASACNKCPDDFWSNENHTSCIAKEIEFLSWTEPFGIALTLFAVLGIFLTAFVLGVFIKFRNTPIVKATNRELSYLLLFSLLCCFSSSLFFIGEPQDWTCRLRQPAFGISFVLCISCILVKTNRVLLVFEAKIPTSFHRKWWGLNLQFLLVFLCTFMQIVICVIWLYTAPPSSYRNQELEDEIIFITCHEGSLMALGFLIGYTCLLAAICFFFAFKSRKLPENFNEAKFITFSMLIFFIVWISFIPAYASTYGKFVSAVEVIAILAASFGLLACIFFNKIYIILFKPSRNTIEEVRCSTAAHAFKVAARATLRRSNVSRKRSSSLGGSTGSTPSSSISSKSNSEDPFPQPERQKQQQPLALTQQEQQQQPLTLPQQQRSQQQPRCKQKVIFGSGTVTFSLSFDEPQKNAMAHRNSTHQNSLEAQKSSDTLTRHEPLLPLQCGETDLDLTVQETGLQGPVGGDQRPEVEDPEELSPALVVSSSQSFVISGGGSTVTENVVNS
- method: Evaluation of antagonistic action on calcium receptor using reporter gene (luciferase)
- protocol.conditions: rat adrenal derived cells with luciferase and human calcium receptor cDNA, 5 mM calcium chloride, 4 hrs; read-out: IC50 (concentration showing 50% inhibitory rate of luciferase activity)
pIC50: −log10 of the molar value.

{"columns": ["compound", "pIC50"],
 "data": [
  ["CC(OC[C@H](O)CNC(C)(C)Cc1ccc2ccccc2c1)c1ccccc1-c1ccc(C(=O)NS(C)(=O)=O)cc1 (stereo partly shown)", 7.66],
  ["C[C@@H](OC[C@H](O)CNC(C)(C)Cc1ccc2ccccc2c1)c1ccccc1CCCCCC(=O)O", 7.85],
  ["CC(OC[C@H](O)CNC(C)(C)Cc1ccc2ccccc2c1)c1ccccc1-c1ccc(C(N)=O)cc1 (stereo partly shown)", 7.52],
  ["C[C@@H](OC[C@H](O)CNC(C)(C)Cc1ccc2ccccc2c1)c1ccccc1-c1cccc(CC(=O)O)c1", 7.96],
  ["CCOC(=O)Cc1ccc(-c2ccccc2C(C)OC[C@H](O)CNC(C)(C)Cc2ccc3ccccc3c2)cc1 (stereo partly shown)", 6.80],
  ["CC(OC[C@H](O)CNC(C)(C)Cc1ccc2ccccc2c1)c1ccccc1-c1ccc(C(=O)O)s1 (stereo partly shown)", 7.85],
  ["CCOP(=O)(O)c1ccc(-c2ccccc2[C@@H](C)OC[C@H](O)CNC(C)(C)Cc2ccc3ccccc3c2)cc1", 8.10]
]}

---

- target.of.assay: CYP2D6 (Homo sapiens, UniProt P10635)
- Construct: purchased BD Bioscience
- Sequence (P10635 whole entry): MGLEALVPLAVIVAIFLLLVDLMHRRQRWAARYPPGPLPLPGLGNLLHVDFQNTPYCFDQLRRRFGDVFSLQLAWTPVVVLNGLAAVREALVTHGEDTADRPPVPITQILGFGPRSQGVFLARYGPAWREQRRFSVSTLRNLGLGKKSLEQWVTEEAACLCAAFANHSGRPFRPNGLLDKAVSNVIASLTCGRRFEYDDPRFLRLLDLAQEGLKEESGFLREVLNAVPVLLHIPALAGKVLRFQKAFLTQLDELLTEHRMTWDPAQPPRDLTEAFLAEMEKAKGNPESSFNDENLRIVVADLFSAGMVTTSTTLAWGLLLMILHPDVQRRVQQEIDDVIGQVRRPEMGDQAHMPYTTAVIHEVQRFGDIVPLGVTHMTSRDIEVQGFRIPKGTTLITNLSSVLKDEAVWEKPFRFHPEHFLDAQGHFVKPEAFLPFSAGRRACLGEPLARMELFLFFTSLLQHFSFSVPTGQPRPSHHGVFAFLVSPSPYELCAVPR
- method: Metabolic enzyme CYP2D6 inhibitory activity (BD Bioscience kit)
- Format: in vitro ADME
- protocol.conditions: enzyme activity free of test compound as 100%; read-out: CYP2D6 IC50 (concentration showing 50% inhibition)
pIC50: −log10 of the molar value.
Reported pIC50 values follow for various compounds

{"columns": ["compound", "limit.sign", "pIC50"],
 "data": [
  ["C[C@@H](OC[C@H](O)CNC(C)(C)Cc1ccc2ccccc2c1)c1ccccc1-c1ccc(P(=O)(O)O)cc1", "<", 5.00],
  ["C[C@@H](OC[C@H](O)CNC(C)(C)Cc1ccc2ccccc2c1)c1ccccc1CCC(=O)O", "=", 5.02],
  ["CC(OC[C@H](O)CNC(C)(C)Cc1ccc2ccccc2c1)c1ccccc1-c1ccc(C(=O)NS(C)(=O)=O)cc1 (stereo partly drawn)", "=", 5.10]
]}

---

- target.of.assay: human calcium receptor (Homo sapiens)
- Construct: expressed in transfected cells; host or cells: cell strain derived from rat adrenal, co-transfected with luciferase cDNA
- method: Evaluation of antagonistic action on calcium receptor using reporter gene (luciferase)
- Format: cell-based
- protocol.conditions: rat adrenal derived cells with luciferase and human calcium receptor cDNA, 5 mM calcium chloride, 4 hrs; read-out: IC50 (concentration showing 50% inhibitory rate of luciferase activity)
pIC50: −log10 of the molar value.
Reported pIC50 values follow for various compounds

{"columns": ["compound", "pIC50"],
 "data": [
  ["CC(OC[C@H](O)CNC(C)(C)Cc1ccc2ccccc2c1)c1ccccc1-c1ccc(-c2nsc(=O)[nH]2)cc1 (some centres unmarked)", 6.87],
  ["C[C@@H](OC[C@H](O)CNC(C)(C)Cc1ccc2ccccc2c1)c1ccccc1-c1ccc(N)cc1", 7.26],
  ["CC(OC[C@H](O)CNC(C)(C)Cc1ccc2ccccc2c1)c1ccccc1OCCCCC(=O)O (some centres unmarked)", 6.72],
  ["CC(OC[C@H](O)CNC(C)(C)Cc1ccc2ccccc2c1)c1ccccc1-c1ccc(CC(=O)O)cc1 (some centres unmarked)", 6.92],
  ["C[C@@H](OC[C@H](O)CNC(C)(C)Cc1ccc2ccccc2c1)c1ccccc1CCCCC(=O)O", 7.74]
]}
